Test system: NCI-H460 lung
Method: NCI tumour cell line growth inhibition, 48 h
Property Measured: TGI

Sample CC[C@H](C)[C@H](NC(=O)c1cnccn1)C(=O)N(C)[C@H](C[C@@H](OC(C)=O)c1nc(C(=O)N[C@@H](Cc2ccccc2)C[C@H](C)C(=O)OC)cs1)C(C)C ; TGI observed: > 33.3 µM

Sample CC(C)(C)c1cc(/C=C2/NC(=O)NC2=O)cc(C(C)(C)C)c1O ; TGI observed: 29.1 µM

Sample CC1(C)O[C@H]2OC3CCC(=O)CC3(O)[C@H]2O1 (stereo partly drawn) ; TGI observed: > 100 µM

Sample C[n+]1cc2c3c(ccc2c2ccc4cc5c(cc4c21)OCO5)OCO3 ; TGI observed: 3.7 µM

Sample C[C@]12CC[C@@H]3c4ccc(O)c([N+](=O)[O-])c4CC[C@H]3[C@@H]1CC[C@@H]2NS(=O)(=O)c1ccc(C(F)(F)F)cc1 ; TGI observed: 4.83 µM

Sample CCCCCCCCCCCCOCCOCCOCCOCCOCCOCC(=O)NC(Cc1ccccc1)C(=O)Oc1ccc([N+](=O)[O-])cc1 (stereo not drawn) ; TGI observed: > 100 µM

Sample Cc1cc(Cl)ccc1NC(=O)C(=O)Cc1nc2ccc(C(=O)c3ccccc3)cc2[nH]c1=O ; TGI observed: > 100 µM

Sample CC(C)=CCC12Cc3ccc(O)cc3C(C(C)CN1)C2C (stereo not drawn) ; TGI observed: > 100 µM

* * *

Test system: CAKI-1 renal
Method: NCI tumour cell line growth inhibition, 48 h
Peptide text beside a SMILES is read from it. * marks the point of attachment. X26 = Clc1c(Cl)c(Cl)c(O*)c(Cl)c1Cl; Boc = CC(C)(C)OC(=O)*; OBn = c1ccc(CO*)cc1; Bn = c1ccc(C*)cc1
Please go through the items and note down their TGI.
Give just the numeric value; µM need not be written.

Sample C=C1CC(COc2ccc3c(C)c(C)c(=O)oc3c2C)(c2ccccc2)OC1=O (stereo not drawn) ; TGI observed: 3.33

Sample CC(CO)[C@H]1OC(=O)C=C2[C@@]13O[C@@H]3[C@H]1OC(=O)[C@@]3(C)[C@H]4O[C@H]4C[C@@]2(C)[C@@H]13 (stereo partly drawn) ; TGI observed: 8.25

Sample CC(C)CC(NC(=O)C(CCC(=O)OCc1ccccc1)NC(=O)OC(C)(C)C)C(=O)NC(COCc1ccccc1)C(=O)NC(Cc1ccccc1)C(=O)Oc1c(Cl)c(Cl)c(Cl)c(Cl)c1Cl (stereo not drawn) (Boc-E(OBn)LS(Bn)F-X26; configuration not given here) ; TGI observed: 48.4

Sample COc1ccc(Cl)cc1Nc1nc(C(F)(F)F)ccc1C(=O)NN ; TGI observed: 22.7

* * *

System: SF-268 CNS
Method: NCI tumour cell line growth inhibition, 48 h
Please go through the items and note down their GI50.

Sample COc1cc(C2c3cc4c(cc3[C@@H](Nc3ccc(N(C)C)cc3)[C@H]3COC(=O)C23)OCO4)cc(OC)c1O (some centres undefined) ; GI50 observed: 3.13 µM

Sample CC1(C)N=C(N)N=C(N)N1c1ccc(CCc2ccccc2)c(Cl)c1 ; GI50 observed: 0.0552 µM

Sample S=C(N/N=C/c1cc(Cl)cc(Cl)c1)NC12CC3CC(CC(C3)C1)C2 ; GI50 observed: 6.18 µM

Sample O=C(Nc1ccc(OC(F)(F)F)cc1)c1sccc1NCc1ccnc2ccccc12 ; GI50 observed: 5.26 µM

Sample COC(=O)C1=C(OC(=O)c2ccc(Cl)cc2)C(C(=O)OC)[C@@]2(O)[C@@H](C(=O)OC)C(c3ccccc3C(F)(F)F)C[C@@H]1[C@@H]2C(=O)OC (some centres undefined) ; GI50 observed: 11 µM

Sample CCOC(=O)c1c(NC(=O)c2ccc(C(C)C)cc2)sc2c(CN(C)C)c(O)ccc12 ; GI50 observed: 1.98 µM

Sample COc1cc(Nc2ccnc(N3CCN(c4ccnc5cc(Cl)ccc45)CC3)n2)cc(OC)c1 ; GI50 observed: 3.05 µM

Sample C[n+]1cc2c3c(ccc2c2ccc4cc5c(cc4c21)OCO5)OCO3 ; GI50 observed: 0.489 µM

Sample O=C1/C(=C/c2ccc(Cl)cc2)CCCc2ccc(F)cc21 ; GI50 observed: 19.9 µM
